Listing: Copies/cell class, CLL2 of selected substances
experimental_system: HLA-A*0201 (HLA-A2) peptide complexes (Homo sapiens, UniProt P04439, D140Y/D185E/D98H/E176V/E277Q/G131W/G231S/I119V/I121R/I166T/I218V/L300P/L318F/N151K/N90K/P208A/P217A/Q86G/Q94H/R138H/R169H/T345S)
Construct: endogenous in cells; host or cells: JY B-lymphoblastoid line; primary CLL, MCL, AML, ALL samples; healthy splenic T and B cells
protocol_notes: HLA-A*0201 phosphopeptides associated with leukemia samples (isolation of HLA-associated peptides)
test_parameters: CLL2
readout_name: Copies/cell class, CLL2

substance	reported_result
444 (KMDSFLDMQL; SITE (1)..(10): One or more of the listed amino acids can be phosphorylated as set forth in the Tables; listed as Homo sapiens) [compound 444]	0
457 (RTFSPTYGL; SITE (1)..(9): One or more of the listed amino acids can be phosphorylated as set forth in the Tables; listed as Homo sapiens) [compound 457]	0
